System: NCI-H460
experiment-notes: Antiproliferative activity against human NCI-H460 cells by sulforhodamine B assay relative to control
Format: functional
Parameter GI50: see the listing below.

// worked examples, GI50 included
| structure-notation | GI50 |
| --- | --- |
| CCCCCCCCCCCC[C@@H](O)[C@H]1CC[C@H]([C@H](O)CCCCCCCCCCCCc2ncccn2)O1 | > 100 µM |
| CCCCCCCCCCCC[C@@H](O)[C@H]1CC[C@H]([C@H](O)CCCCCCCCCCCCc2cnn(C)c2)O1 | > 100 µM |
| CCCCCCCCCCCC[C@@H](O)[C@H]1CC[C@H]([C@H](O)CCCCCCCCCCCCC2=C[C@H](C)OC2=O)O1 | > 100 µM |
| CCCCCCCCCCCC[C@@H](O)[C@H]1CC[C@H]([C@H](O)CCCCCCCCCCCCc2cnc(N)nc2)O1 | > 100 µM |
| CCCCCCCCCCCC[C@@H](O)[C@H]1CC[C@H]([C@H](O)CCCCCCCCCCCCc2cncnc2)O1 | 40 µM |

// moving on: another record for GI50
Returns the measured GI50 for the input molecule. Input: CCCCCCCCCCCC[C@@H](O)[C@H]1CC[C@H]([C@H](O)CCCCCCCCCCCCc2ccnn2C)O1
> 100 µM

---

Parameter GI50: see the listing below.
experiment-notes: Antiproliferative activity against human HBC5 cells by sulforhodamine B assay relative to control
Format: functional
API: value field is a number in µM; no unit string.

| structure-notation | unit-tag | GI50 |
| --- | --- | --- |
| CCCCCCCCCCCC[C@@H](O)[C@H]1CC[C@H]([C@H](O)CCCCCCCCCCCCc2cncnc2)O1 | µM | 17 |

Returns the measured GI50 for the input compound. Input: CCCCCCCCCCCC[C@@H](O)[C@H]1CC[C@H]([C@H](O)CCCCCCCCCCCCc2ncccn2)O1
50

One more compound: CCCCCCCCCCCC[C@@H](O)[C@H]1CC[C@H]([C@H](O)CCCCCCCCCCCCc2ccnn2C)O1
69

---

Tested on: MKN-45
experiment-notes: Antiproliferative activity against human MKN45 cells by sulforhodamine B assay relative to control
Assay type: functional
Parameter GI50: see the listing below.

// worked examples, GI50 included
| structure-notation | assay-system | measurement-kind | result |
| --- | --- | --- | --- |
| CCCCCCCCCCCC[C@@H](O)[C@H]1CC[C@H]([C@H](O)CCCCCCCCCCCCc2cncnc2)O1 | MKN-45 | GI50 | 50 µM |
| CCCCCCCCCCCC[C@@H](O)[C@H]1CC[C@H]([C@H](O)CCCCCCCCCCCCC2=C[C@H](C)OC2=O)O1 | MKN-45 | GI50 | > 100 µM |
| CCCCCCCCCCCC[C@@H](O)[C@H]1CC[C@H]([C@H](O)CCCCCCCCCCCCc2ncccn2)O1 | MKN-45 | GI50 | > 100 µM |
| CCCCCCCCCCCC[C@@H](O)[C@H]1CC[C@H]([C@H](O)CCCCCCCCCCCCc2cnc(N)nc2)O1 | MKN-45 | GI50 | > 100 µM |
| CCCCCCCCCCCC[C@@H](O)[C@H]1CC[C@H]([C@H](O)CCCCCCCCCCCCc2ccnn2C)O1 | MKN-45 | GI50 | > 100 µM |

Returns the measured GI50 for the input compound. Input: CCCCCCCCCCCC[C@@H](O)[C@H]1CC[C@H]([C@H](O)CCCCCCCCCCCCc2cnn(C)c2)O1
> 100 µM
